Value source: PubChem BioAssay AID312

System: BDF1 mice, C1498 leukemia ip, median survival T/C
Assay: NCI In Vivo Anticancer Drug Screen. Data for tumor model C1498 Myeloid Leukemia (intraperitoneal) in B6D2F1 (BDF1) mice
Conditions: endpoint: median survival time; dose: 8.0 mg/kg/injection; schedule: Q01DX010 (ip); vehicle: saline; higher = longer survival
Inconclusive results and toxic doses are left out.
For each entry below, report its T/C value.

Input: Which T/C is listed for CC(CCC(C)OS(C)(=O)=O)OS(C)(=O)=O (stereo not given) ?
Output: 95 % of control

Input: Then what about the compound Nc1nc(=S)c2ncn(C3OC(CO)C(O)C3O)c2[nH]1 (stereo not given) ?
Output: 107 % of control

Input: Item: O=C(Nc1ccc(C2=NCCN2)cc1)c1ccc(C(=O)Nc2ccc(C3=NCCN3)cc2)c([N+](=O)[O-])c1
Output: 100 % of control

Input: And Nc1nc(SCc2ccccc2)c2[nH]cnc2n1 ?
Output: 100 % of control

Input: Would you mind doing COc1cc(C(=O)O)c2c(c1C)OC(=O)c1c(C)cc(O)c(C=O)c1O2 as well?
Output: 100 % of control

---

Test system: BDF1 mice, C1498 leukemia ip, median survival T/C
Assay: NCI In Vivo Anticancer Drug Screen. Data for tumor model C1498 Myeloid Leukemia (intraperitoneal) in B6D2F1 (BDF1) mice
Details: endpoint: median survival time; dose: 16.0 mg/kg/injection; schedule: Q01DX010 (ip); vehicle: saline; higher = longer survival
Toxic doses and inconclusive results are not listed.
assay endpoint: T/C

Input: # query: T/C | item COc1cc(C(=O)O)c2c(c1C)OC(=O)c1c(C)cc(O)c(C=O)c1O2 | system: BDF1 mice, C1498 leukemia ip, median survival T/C
Output: 108 % of control

Input: Follow-up entry: C=CC(CN1CC1)OC(C)=O (centres undefined)
Output: 104 % of control

Input: Thanks! And CC(CCC(C)OS(C)(=O)=O)OS(C)(=O)=O (centres undefined) ?
Output: 100 % of control

Input: Then what about the molecule Nc1nc(SCc2ccccc2)c2[nH]cnc2n1 ?
Output: 105 % of control

---

Task for the reader: assign each of the following molecules its reported T/C.
Tested on: BDF1 mice, C1498 leukemia ip, median survival T/C
Test: NCI In Vivo Anticancer Drug Screen. Data for tumor model C1498 Myeloid Leukemia (intraperitoneal) in B6D2F1 (BDF1) mice
Conditions: endpoint: median survival time; dose: 200.0 mg/kg/injection; schedule: Q01DX010 (ip); vehicle: saline; higher = longer survival
Toxic doses and inconclusive results are not listed.

Input: Which T/C is reported with BDF1 mice, C1498 leukemia ip, median survival T/C for this entry: CS(=O)(=O)OCC(O)C(O)C(O)C(O)COS(C)(=O)=O (centres undefined) ?
Output: 104 % of control

Input: Can you check CC(=O)Nc1ccc2nc3ccc(NC(C)=O)cc3[n+](-c3ccccc3)c2c1 next?
Output: 88 % of control

Input: Next molecule: O=c1cnn(C2OC(CO)C(O)C2O)c(=O)[nH]1 (centres undefined)
Output: 104 % of control

Input: What do you get for Cc1cc2nc3c(=O)[nH]c(=O)nc-3n(CC(O)C(O)C(O)C(O)CO)c2cc1C (centres undefined) ?
Output: 91 % of control
